Listing: IC50 of selected binders
# Subject Of Test: T1, full length human DLL4 (human, UniProt Q9NR61 27-685)
# T1 construct: whole, on cells; also called native DLL4 expressed in HEK293 cells
# Method Notes: FACS competition vs Notch1/Fc, HEK293 cells with human DLL4
Give the value; after it, write the unit.

Example binders with recorded IC50:
Binder: 9G8 IgG2 VH wt/VL V79A (antibody, V domains shown, IgG2) VH: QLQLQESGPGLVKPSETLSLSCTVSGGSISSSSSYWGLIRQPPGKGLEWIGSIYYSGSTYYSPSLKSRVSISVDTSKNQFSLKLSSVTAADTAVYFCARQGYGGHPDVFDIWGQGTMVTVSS VL: SSELTQSPSVSVSPGQTARITCSGDKLGDVYVCWYQQKTGQSPVLVIYEDTKRPSGIPERFSGSNSGNTATLTISGTQAMDEADYYCQAWDSTTAVIFGGGTKLTVL
IC50: 0.211 µg/mL

Binder: 9G8 IgG2 VH wt/VL C33D (antibody, V domains shown, IgG2) VH: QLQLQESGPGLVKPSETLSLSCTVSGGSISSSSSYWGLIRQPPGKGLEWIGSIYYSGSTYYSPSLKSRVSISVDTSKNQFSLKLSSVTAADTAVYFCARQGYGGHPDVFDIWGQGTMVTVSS VL: SSELTQSPSVSVSPGQTARITCSGDKLGDVYVDWYQQKTGQSPVLVIYEDTKRPSGIPERFSGSNSGNTATLTISGTQVMDEADYYCQAWDSTTAVIFGGGTKLTVL
IC50: 0.345 µg/mL

Proceeding to the next binder to report its IC50.
[in] Give the reported IC50 for this binder. 2H10 IgG2 VH M93V/VL wt (antibody, V domains shown, IgG2) VH: QVQLVESGGGVVQPGRSLRLSCAASGFTFSRHGMHWVRQAPGKGLEWVAVVWFDGSNIYYADSVKGRFTISRDNSKNTLYLQMNSLRAEDTAVYYCARDSRIAAADYWGQGTLVTVSS VL: SYELTQPPSVSVSPGQTVSITCSGDKLGDKYVCWYQQKPGQSPVLVIYQESKRPSGIPERFSGSSSGNTATLTISGTQAMDEADYYCQTWDSSLVVFGGGTKLTVL
[out] 0.264 µg/mL

Origin of the recorded values: patent US20100196385A1
